Just for reference, PubChem BioAssay (NCATS) is where these values come from.

- ASSAY EXPLANATION: qHTS for Antimalaria activity screened against the NCATS CANVASS Library (AID 1347380); note: nearly all actives have a fitted effect of over 40% in size
- COND: P. falciparum Dd2 growth, SYBR Green fluorescence, 72 h; series mostly up to 28.7 µM
Results filed as inconclusive are left out. Activity calls are given as the source filed them. Calls come from the whole dose curve; as a rule, active = well fitted cell-killing curve with a large enough effect; inconclusive = small, poorly fitted or top-dose-only effect, or effect the other way; inactive = no such curve, though single readings can be large or run the other way.
Select the matching outcome among true (active), false (inactive)

Worked examples follow.
| COMPOUND | LABEL |
| --- | --- |
| COc1ccc2c(c1)[nH]c1c(C)nccc12 | true |
| C/C=C1/CN2CC[C@]34C(=Nc5ccccc53)[C@@H]2C[C@@H]1[C@H]4C(=O)OC | false |
| CN(C)Cc1c[nH]c2ccccc12 | false |
| CC[N@@+]1([O-])C[C@]2(C)CC[C@@H](O)[C@@]34C5C[C@H]6CC[C@@]5(C(C[C@H]23)C41)[C@H](O)[C@@]6(O)CO (some centres undefined) | false |

INPUT: Outcome? `CNCCc1c[nH]c2ccccc12`
OUTPUT: false
